system: CYP3A4 (Homo sapiens, UniProt P08684)
Sequence (P08684 whole entry): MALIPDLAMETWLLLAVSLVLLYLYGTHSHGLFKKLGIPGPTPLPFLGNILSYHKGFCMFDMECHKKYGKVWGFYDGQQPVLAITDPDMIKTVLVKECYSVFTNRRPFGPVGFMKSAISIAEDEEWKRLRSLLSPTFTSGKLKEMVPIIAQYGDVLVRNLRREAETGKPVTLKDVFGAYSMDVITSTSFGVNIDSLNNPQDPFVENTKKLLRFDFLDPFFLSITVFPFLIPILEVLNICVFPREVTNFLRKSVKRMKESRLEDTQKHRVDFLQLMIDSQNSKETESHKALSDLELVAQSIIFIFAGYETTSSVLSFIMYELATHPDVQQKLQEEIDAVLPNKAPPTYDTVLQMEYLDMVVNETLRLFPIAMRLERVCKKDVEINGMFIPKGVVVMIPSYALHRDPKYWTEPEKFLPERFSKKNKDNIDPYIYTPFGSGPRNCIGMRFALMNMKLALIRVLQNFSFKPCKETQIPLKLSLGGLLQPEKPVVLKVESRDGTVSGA
protocol-summary: Inhibition of CYP3A4 in human liver microsomes using midazolam or testosterone as substrate at 10 uM
Assay type: ADME
conditions-used: probe midazolam or testosterone
assay-readout: inhibition at 10 µM (%)
Value expressed in %; do not type the unit.

q: GET /values?readout=inhibition at 10 µM&item= Cc1ccc(Nc2cc(C(=O)N3Cc4ccccc4C3)c(O)cc2O)cc1
a: 38

q: Which inhibition at 10 µM is listed for O=C(c1cc(-n2ccc3ccccc32)c(O)cc1O)N1Cc2ccccc2C1 ?
a: 17

q: What does the record list as inhibition at 10 µM for Cc1ccc2c(ccn2-c2cc(C(=O)N3Cc4ccccc4C3)c(O)cc2O)c1 ?
a: 4

q: Return reported inhibition at 10 µM; argument: O=C(c1cc(-n2ccc3cc(Br)ccc32)c(O)cc1O)N1Cc2ccccc2C1
a: 13

q: Using the record for O=C(c1cc(-n2ccc3c([N+](=O)[O-])cccc32)c(O)cc1O)N1Cc2ccccc2C1 , report its inhibition at 10 µM.
a: 8

q: I'd like to know its inhibition at 10 µM. The compound in question is O=C(c1cc(Nc2ccc(Cl)cc2Cl)c(O)cc1O)N1Cc2ccccc2C1
a: 33

q: Fill in the blank: the reported inhibition at 10 µM of O=C(c1cc(Nc2ccccc2)c(O)cc1O)N1Cc2ccccc2C1 is ____.
a: 19

q: Record request: inhibition at 10 µM value, item O=C(c1cc(-n2ccc3c(Br)cccc32)c(O)cc1O)N1Cc2ccccc2C1
a: 22

====

Provide the recorded inhibition at 10 µM for the entries that follow.
system: UniProt P05177
Sequence (P05177 whole entry): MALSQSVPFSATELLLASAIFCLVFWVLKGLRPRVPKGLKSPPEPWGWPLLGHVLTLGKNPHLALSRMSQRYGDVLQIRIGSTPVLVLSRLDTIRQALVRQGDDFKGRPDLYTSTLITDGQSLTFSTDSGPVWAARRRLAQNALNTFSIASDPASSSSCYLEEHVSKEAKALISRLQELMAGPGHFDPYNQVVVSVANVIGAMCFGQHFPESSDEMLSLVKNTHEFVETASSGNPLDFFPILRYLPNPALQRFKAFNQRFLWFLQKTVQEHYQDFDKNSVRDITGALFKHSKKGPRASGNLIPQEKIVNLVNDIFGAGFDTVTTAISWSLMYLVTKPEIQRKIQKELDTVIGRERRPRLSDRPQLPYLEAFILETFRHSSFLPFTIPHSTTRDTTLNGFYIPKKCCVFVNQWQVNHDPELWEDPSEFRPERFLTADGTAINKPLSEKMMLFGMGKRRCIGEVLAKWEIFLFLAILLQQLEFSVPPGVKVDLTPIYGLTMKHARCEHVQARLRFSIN
protocol-summary: Inhibition of CYP1A2 in human liver microsomes using phenacetin as substrate at 10 uM
Assay type: ADME
conditions-used: probe phenacetin
Write it as a number; the unit % goes unstated.

q: Name the reported inhibition at 10 µM value associated with the compound O=C(c1cc(-n2ccc3c([N+](=O)[O-])cccc32)c(O)cc1O)N1Cc2ccccc2C1
a: 47

q: For the compound shown here, O=C(c1cc(-n2ccc3cc(Br)ccc32)c(O)cc1O)N1Cc2ccccc2C1 , give the reported inhibition at 10 µM.
a: 48

q: Would you mind telling me what inhibition at 10 µM value was observed for O=C(c1cc(Nc2ccc(Cl)cc2Cl)c(O)cc1O)N1Cc2ccccc2C1 ?
a: 40

q: Need inhibition at 10 µM, item O=C(c1cc(Nc2ccccc2)c(O)cc1O)N1Cc2ccccc2C1
a: 72

q: Given Cc1ccc(Nc2cc(C(=O)N3Cc4ccccc4C3)c(O)cc2O)cc1 , state its recorded inhibition at 10 µM.
a: 61

q: Quick check: inhibition at 10 µM of O=C(c1cc(-n2ccc3ccccc32)c(O)cc1O)N1Cc2ccccc2C1 ?
a: 52

q: Value lookup for inhibition at 10 µM; key = O=C(c1cc(-n2ccc3c(Br)cccc32)c(O)cc1O)N1Cc2ccccc2C1
a: 34

q: What measured inhibition at 10 µM goes with Cc1ccc2c(ccn2-c2cc(C(=O)N3Cc4ccccc4C3)c(O)cc2O)c1 ?
a: 28

====

Exercise: for every item that follows, state its recorded IC50.
system: UniProt P07900
The figure you give is taken to be in nM; do not add the unit.

q: Look up IC50 with UniProt P07900 for this compound: Cc1ccc(Nc2cc(C(=O)N3Cc4ccccc4C3)c(O)cc2O)cc1
a: 71

q: Test system UniProt P07900; read-out IC50; what value for Cc1ccc2c(ccn2-c2cc(C(=O)N3Cc4ccccc4C3)c(O)cc2O)c1 ?
a: 38

q: Please state recorded IC50 (tested on UniProt P07900) of O=C(c1cc(-n2ccc3cnccc32)c(O)cc1O)N1Cc2ccccc2C1
a: 250

q: For UniProt P07900, provide IC50 of O=C(c1cc(Nc2ccc(Cl)cc2Cl)c(O)cc1O)N1Cc2ccccc2C1 please.
a: 190

q: Enter reported IC50 observed with UniProt P07900 for CNC(=O)c1cccc2c1ccn2-c1cc(C(=O)N2Cc3ccccc3C2)c(O)cc1O
a: 620

q: Please tell me: IC50 of O=C(c1cc(-n2ccc3ccccc32)c(O)cc1O)N1Cc2ccccc2C1 , system UniProt P07900?
a: 38

q: UniProt P07900 / IC50 / O=C(c1cc(Nc2ccccc2)c(O)cc1O)N1Cc2ccccc2C1 : value?
a: 21

q: Lab request: please report IC50 under test system UniProt P07900 for O=C(c1cc(-n2ccc3ccccc32)c(O)cc1O)N1CCc2sccc2C1
a: 330

q: Param readout= IC50; system= UniProt P07900; entry= O=C(c1cc(-n2ccc3c(Br)cccc32)c(O)cc1O)N1Cc2ccccc2C1 ; returns value.
a: 70

q: Provide value of IC50 for this record tested with UniProt P07900: O=C(c1cc(-n2ccc3ncccc32)c(O)cc1O)N1Cc2ccccc2C1
a: 130

====

For each of the molecules below, state its microsomal CLint at 1 µM.
protocol-summary: Intrinsic clearance in rat liver microsomes at 1 uM after 5 mins by LC-MS/MS analysis
Type: ADME
conditions-used: read-out: CLH
Please give a number only; it is taken to be in µL/min/mg.

q: Fill blank: measured microsomal CLint at 1 µM of the molecule O=C(c1cc(Nc2ccc(Cl)cc2Cl)c(O)cc1O)N1Cc2ccccc2C1 is ____.
a: 16

q: Look up microsomal CLint at 1 µM for this molecule: Cc1ccc2c(ccn2-c2cc(C(=O)N3Cc4ccccc4C3)c(O)cc2O)c1
a: 42

q: I have this molecule here, O=C(c1cc(-n2ccc3c([N+](=O)[O-])cccc32)c(O)cc1O)N1Cc2ccccc2C1 , and I need its recorded microsomal CLint at 1 µM.
a: 6

q: Return reported microsomal CLint at 1 µM; argument: O=C(c1cc(-n2ccc3ccccc32)c(O)cc1O)N1Cc2ccccc2C1
a: 25

q: Which value of microsomal CLint at 1 µM has been reported for O=C(c1cc(-n2ccc3cc(Br)ccc32)c(O)cc1O)N1Cc2ccccc2C1 in the records?
a: 16

q: Tell me the measured microsomal CLint at 1 µM of O=C(c1cc(-n2ccc3c(Br)cccc32)c(O)cc1O)N1Cc2ccccc2C1 , please.
a: 49

q: Look at this molecule and give its reported microsomal CLint at 1 µM. O=C(c1cc(Nc2ccccc2)c(O)cc1O)N1Cc2ccccc2C1
a: 12

====

Give measured microsomal CLint at 1 µM for each item. Keep answers brief.
protocol-summary: Intrinsic clearance in human liver microsomes at 1 uM after 5 mins by LC-MS/MS analysis
Type: ADME
conditions-used: read-out: CLH
Respond with the bare value in µL/min/mg.

q: Query (compound): O=C(c1cc(Nc2ccccc2)c(O)cc1O)N1Cc2ccccc2C1 ; field requested: microsomal CLint at 1 µM
a: 2

q: Given the entry O=C(c1cc(-n2ccc3c([N+](=O)[O-])cccc32)c(O)cc1O)N1Cc2ccccc2C1 , report its measured microsomal CLint at 1 µM.
a: 22

q: Consider the compound shown here: O=C(c1cc(-n2ccc3cc(Br)ccc32)c(O)cc1O)N1Cc2ccccc2C1 What is its recorded microsomal CLint at 1 µM?
a: 18

q: Which microsomal CLint at 1 µM reading was recorded for the compound O=C(c1cc(-n2ccc3ccccc32)c(O)cc1O)N1Cc2ccccc2C1 ?
a: 13

====

system: CYP2C19 (Homo sapiens)
Sequence (P33261 whole entry): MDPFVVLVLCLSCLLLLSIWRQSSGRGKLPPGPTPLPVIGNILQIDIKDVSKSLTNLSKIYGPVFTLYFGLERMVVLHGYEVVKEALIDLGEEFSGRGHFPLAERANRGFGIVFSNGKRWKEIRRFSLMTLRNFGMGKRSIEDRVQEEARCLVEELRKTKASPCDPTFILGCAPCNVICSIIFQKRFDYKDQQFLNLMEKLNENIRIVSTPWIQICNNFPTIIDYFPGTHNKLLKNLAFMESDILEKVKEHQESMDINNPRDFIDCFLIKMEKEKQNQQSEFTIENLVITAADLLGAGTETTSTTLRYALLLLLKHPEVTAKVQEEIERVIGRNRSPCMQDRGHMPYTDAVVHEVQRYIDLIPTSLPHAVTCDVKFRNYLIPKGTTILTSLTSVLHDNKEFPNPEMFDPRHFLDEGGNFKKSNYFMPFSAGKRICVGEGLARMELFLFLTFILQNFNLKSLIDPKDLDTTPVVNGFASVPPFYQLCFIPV
protocol-summary: Inhibition of CYP2C19 in human liver microsomes using mephenytoin as substrate at 10 uM
Type: ADME
conditions-used: probe mephenytoin
Task for the reader: assign each of the following compounds its reported inhibition at 10 µM.
// note: answer is a bare numeric in %

q: Endpoint output: inhibition at 10 µM of O=C(c1cc(Nc2ccc(Cl)cc2Cl)c(O)cc1O)N1Cc2ccccc2C1 . Value?
a: 23

q: What measured inhibition at 10 µM goes with Cc1ccc2c(ccn2-c2cc(C(=O)N3Cc4ccccc4C3)c(O)cc2O)c1 ?
a: 63

q: Recorded inhibition at 10 µM for O=C(c1cc(-n2ccc3cc(Br)ccc32)c(O)cc1O)N1Cc2ccccc2C1 , please?
a: 71

q: // returns reported inhibition at 10 µM for input O=C(c1cc(Nc2ccccc2)c(O)cc1O)N1Cc2ccccc2C1
a: 52

q: # query: inhibition at 10 µM of entry O=C(c1cc(-n2ccc3ccccc32)c(O)cc1O)N1Cc2ccccc2C1
a: 60

====

Exercise: state measured Retention_time for each of the molecules provided.
protocol-summary: Retention time of the compound
Type: physicochemical
Give the number; min is assumed, so skip it.

q: // lookup Retention_time for O=C(c1cc(-n2ccc3c([N+](=O)[O-])cccc32)c(O)cc1O)N1Cc2ccccc2C1
a: 3.45

q: Entry under review: O=C(c1cc(-n2ccc3cnccc32)c(O)cc1O)N1Cc2ccccc2C1 . Reported Retention_time?
a: 2.45

q: For the molecule shown here, CN1CCN(C(=O)c2cc(-c3nnc4ccc(Br)cn34)c(O)cc2O)CC1 , give the reported Retention_time.
a: 1.86

q: Please look up its Retention_time: O=C(c1cc(Nc2ccccc2)c(O)cc1O)N1Cc2ccccc2C1
a: 3.12

q: I would be grateful if you could share the reported Retention_time for CN1CCN(C(=O)c2cc(-n3ccc4ccccc43)c(O)cc2O)CC1 .
a: 2.35

q: # query: Retention_time of entry O=C(c1cc(-n2ccc3ncccc32)c(O)cc1O)N1Cc2ccccc2C1
a: 2.4

q: If you can, please state the reported Retention_time value of CNC(=O)c1cccc2c1ccn2-c1cc(C(=O)N2Cc3ccccc3C2)c(O)cc1O .
a: 2.74

q: Looking for the measured Retention_time of O=C(c1cc(-c2nnc3ccc(Br)cn23)c(O)cc1O)N1CCc2ccccc2C1 , can you help?
a: 2.76

q: Entry O=C(c1cc(-n2ccc3ccccc32)c(O)cc1O)N1Cc2ccccc2C1 : reported Retention_time = ?
a: 3.56

q: Suppose we examine the molecule COc1ccc2c(c1)c(CCNC(C)=O)cn2-c1cc(C(=O)N2Cc3ccccc3C2)c(O)cc1O ; what Retention_time value has been reported?
a: 3.04

q: # Retention_time lookup, item COC(=O)c1cccc2c1ccn2-c1cc(C(=O)N2Cc3ccccc3C2)c(O)cc1O
a: 3.32

q: What value of measured Retention_time is listed for O=C(c1cc(Nc2ccc(Cl)cc2Cl)c(O)cc1O)N1Cc2ccccc2C1 ?
a: 3.87

q: Any idea what Retention_time was measured for Cc1ccc2c(ccn2-c2cc(C(=O)N3Cc4ccccc4C3)c(O)cc2O)c1 ?
a: 3.68

q: Entry O=C(c1cc(-n2ccc3cc(Br)ccc32)c(O)cc1O)N1Cc2ccccc2C1 : reported Retention_time = ?
a: 3.8

q: State the recorded Retention_time for this entry: COc1ccc2c(c1)c(CCN)cn2-c1cc(C(=O)N2Cc3ccccc3C2)c(O)cc1O
a: 2.69

q: I would be grateful if you could share the reported Retention_time for O=C(c1cc(-n2ccc3ccccc32)c(O)cc1O)N1CCc2ccccc2C1 .
a: 3.54

q: Name the recorded Retention_time for O=C(c1cc(-n2ccc3c(Br)cccc32)c(O)cc1O)N1Cc2ccccc2C1 .
a: 3.8

q: I'd like to know its Retention_time. The molecule in question is O=C(c1cc(-n2ccc3ccccc32)c(O)cc1O)N1CCc2sccc2C1
a: 3.45
